test system: HCT116; assay: Cell proliferation inhibition assay (MTT, CellTiter96); format: cell-based; conditions: Homo sapiens, HCT-116; HCT116 cells, 72 h with compound, MTT readout
MEASURED QUANTITY: pIC50
# reply with the number alone; pIC50 is -log10 of concentration in mol/L

>  <COMPOUND>
O=C(Nc1ccnc(Cl)c1)c1cnc2c(NC3CC3)cc(NC3CC[S+]([O-])CC3)nn12 (stereo not shown)

>  <pIC50>
6.10

$$$$
>  <COMPOUND>
N[C@H]1CC[C@H](Nc2cc(NC3CCC3)c3ncc(C(=O)Nc4ccncc4)n3n2)CC1

>  <pIC50>
7.10

$$$$
>  <COMPOUND>
N[C@H]1CC[C@H](Nc2cc(N[C@H]3C[C@@H](CO)C3)c3ncc(C(=O)Nc4ccncc4F)n3n2)CC1

>  <pIC50>
5.64

$$$$

Now consider the entry below.
Please fill in: pIC50 reported for "N[C@H]1CC[C@H](Nc2cc(NC3CC3)c3ncc(C(=O)Nc4ccncc4)n3n2)CC1" = 6.52

###

target: recombinant CK2A2 (Homo sapiens); construct: purchased Upstate Biotechnology; test: CK2 kinase assay (CK2A2), [γ-33P]ATP filter-binding; format: biochemical; conditions: recombinant CK2A2 5 nM, ATP 5 μM, 10 μM peptide substrate, 30° C. 1 h
Sequence (P19784 whole entry): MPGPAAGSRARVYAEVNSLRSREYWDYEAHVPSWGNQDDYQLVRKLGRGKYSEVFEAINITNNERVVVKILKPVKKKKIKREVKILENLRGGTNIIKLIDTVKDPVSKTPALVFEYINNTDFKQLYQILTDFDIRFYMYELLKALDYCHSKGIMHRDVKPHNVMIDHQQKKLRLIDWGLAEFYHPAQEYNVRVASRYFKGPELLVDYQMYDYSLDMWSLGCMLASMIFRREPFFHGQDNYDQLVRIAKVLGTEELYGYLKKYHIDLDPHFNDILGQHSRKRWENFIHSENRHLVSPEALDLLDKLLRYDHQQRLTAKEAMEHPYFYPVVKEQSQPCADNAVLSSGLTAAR
// NB: equality with 3 nM counts as Not met; only IC50 strictly below is Met

Previously resolved entries follow.
>  <COMPOUND>
O=C(Nc1ccnc(Cl)c1)c1cnc2c(NC3CC3)cc(N[C@H]3CC[C@H](N(CCO)CCO)CC3)nn12 [Example 534]

>  <CAT>
Not met

$$$$
>  <COMPOUND>
O=C(Nc1ccnc(F)c1)c1cnc2c(NC3CC3)cc(N[C@H]3CC[C@H](O)CC3)nn12 [Example 13]

>  <CAT>
Not met

$$$$
>  <COMPOUND>
O=C(Nc1ccnc(Cl)c1)c1cnc2c(Nc3ccon3)cc(N[C@H]3CC[C@H](O)CC3)nn12 [Example 549]

>  <CAT>
Met

$$$$

# input Please let me know if O=C(Nc1ccncc1F)c1cnc2c(NC3CC3)cc(NC3CCCC3)nn12 [Example 333] shows IC50 below 3 nM.
# output Not met

# input For this compound, is IC50 lower than 3 nM? CC(C)CC(=O)N[C@H]1CC[C@H](Nc2cc(NC3CC3)c3ncc(C(=O)Nc4ccnc(Cl)c4)n3n2)CC1 [Example 164]
# output Met

# input Threshold test, IC50 < 3 nM: NCC(=O)N[C@H]1CC[C@H](Nc2cc(NC3CC3)c3ncc(C(=O)Nc4ccncc4F)n3n2)CC1 [Example 124]
# output Not met

###

molecular target: recombinant CK2A1 (Homo sapiens); construct: purchased Invitrogen; assay: CK2 kinase assay (CK2A1), [γ-33P]ATP filter-binding; type: biochemical; details: comparison examples of U.S. 2007/038314 (Table 2)
Sequence (P68400 whole entry): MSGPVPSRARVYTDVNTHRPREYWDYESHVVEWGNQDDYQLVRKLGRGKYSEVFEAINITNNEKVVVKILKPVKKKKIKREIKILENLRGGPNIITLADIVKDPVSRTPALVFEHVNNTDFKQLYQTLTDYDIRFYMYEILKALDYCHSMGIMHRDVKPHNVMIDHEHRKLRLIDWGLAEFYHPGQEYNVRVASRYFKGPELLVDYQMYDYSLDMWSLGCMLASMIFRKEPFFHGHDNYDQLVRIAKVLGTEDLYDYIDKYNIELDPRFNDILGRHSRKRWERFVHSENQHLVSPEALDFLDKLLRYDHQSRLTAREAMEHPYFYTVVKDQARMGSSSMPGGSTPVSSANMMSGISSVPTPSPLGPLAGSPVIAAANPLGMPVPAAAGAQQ
pIC50: −log10 of the molar value.
Entries and their pIC50 values follow.

>  <MOLECULE>
CCOc1ccc(Nc2cc(N[C@H]3CC[C@H](N)CC3)nn3ccnc23)cc1 [I(1), reference compound]

>  <pIC50>
< 4.30

$$$$
>  <MOLECULE>
Cc1ccc(Nc2cc(N[C@H]3CC[C@H](N)CC3)nn3ccnc23)nc1 [II(16), reference compound]

>  <pIC50>
< 4.30

$$$$

# next molecule below
Looking up N[C@H]1CC[C@H](Nc2cc(Nc3ccccc3)c3nccn3n2)CC1 [I(7), reference compound] , I see its pIC50 listed as < 4.30

###

target: recombinant CK2A2 (Homo sapiens); construct: purchased Upstate Biotechnology; assay: CK2 kinase assay (CK2A2), [γ-33P]ATP filter-binding; assay type: biochemical; conditions: comparison examples of U.S. 2007/038314 (Table 2)
MEASURED QUANTITY: IC50 (µM)
Give the quantity in µM, number only.

The reported IC50 value, recombinant CK2A2 (Homo sapiens), for CCOc1ccc(Nc2cc(N[C@H]3CC[C@H](N)CC3)nn3ccnc23)cc1 [I(1), reference compound] reads 10.3

###

System: HCT116
Assay: Cell proliferation inhibition assay (MTT, CellTiter96)
Assay type: cell-based
Conditions: Homo sapiens, HCT-116; HCT116 cells, 72 h with compound, MTT readout
Method: B. Cell Proliferation Inhibition Assay Compounds were evaluated for their ability to inhibit cell proliferation, using an assay that measures mitochondrial metabolic activity, that is directly correlated with cell numbers. […] Following the addition of compounds, the cells were cultured for an additional 72 h before cell viability was determined by measuring the conversion of 3-(4,5-dimethylthiazol-2-yl)-2,5-diphenyltetrazolium bromide (MTT) dye using the CellTiter96 kit (Promega).
Parameter: IC50. Scope: all listed entries.

Worked cases, answers included:
>  <MOLECULE>
COCC(=O)N[C@H]1CC[C@H](Nc2cc(NC3CC3)c3ncc(C(=O)Nc4ccnc(Cl)c4)n3n2)CC1

>  <ASSAY SYSTEM>
HCT116

>  <RESULT>
> 2500 nM

$$$$
>  <MOLECULE>
COC(=O)CN[C@H]1CC[C@H](Nc2cc(NC3CC3)c3ncc(C(=O)Nc4ccncc4F)n3n2)CC1

>  <ASSAY SYSTEM>
HCT116

>  <RESULT>
388 nM

$$$$
>  <MOLECULE>
C[C@@H](N)C(=O)N[C@H]1CC[C@H](Nc2cc(Nc3ccccn3)c3ncc(C(=O)Nc4ccncc4F)n3n2)CC1

>  <ASSAY SYSTEM>
HCT116

>  <RESULT>
90 nM

$$$$

Proceed to the following item.
// recorded IC50 for "N#CCC(=O)N[C@H]1CC[C@H](Nc2cc(NC3CC3)c3ncc(C(=O)Nc4ccnc(F)c4)n3n2)CC1" : 610 nM

###

Recorded pIC50 for the following compounds
tested on: HCT116; assay: Cell proliferation inhibition assay (MTT, CellTiter96); assay type: cell-based; settings: Homo sapiens, HCT-116; HCT116 cells, 72 h with compound, MTT readout
As a rule, pIC50 stands for the negative log10 of the concentration, concentration in M.

>  <COMPOUND>
N#CCC(=O)N[C@H]1CC[C@H](Nc2cc(NC3CC3)c3ncc(C(=O)Nc4ccnc(Cl)c4)n3n2)CC1

>  <ASSAY SYSTEM>
HCT116

>  <MEASURED NUMBER>
6.77

$$$$
>  <COMPOUND>
NCCCC(=O)N[C@H]1CC[C@H](Nc2cc(NC3CC3)c3ncc(C(=O)Nc4ccnc(F)c4)n3n2)CC1

>  <ASSAY SYSTEM>
HCT116

>  <MEASURED NUMBER>
6.47

$$$$
>  <COMPOUND>
CC(C)n1ccc(Nc2cc(N[C@H]3CC[C@H](NC(=O)CC#N)CC3)nn3c(C(=O)Nc4ccnc(Cl)c4)cnc23)n1

>  <ASSAY SYSTEM>
HCT116

>  <MEASURED NUMBER>
7.10

$$$$
>  <COMPOUND>
CN[C@H](C)C(=O)N[C@H]1CC[C@H](Nc2cc(NC3CC3)c3ncc(C(=O)Nc4ccnc(Cl)c4)n3n2)CC1 (relative stereo)

>  <ASSAY SYSTEM>
HCT116

>  <MEASURED NUMBER>
6.68

$$$$

get_value(item= "C[C@H](N)C(=O)N[C@H]1CC[C@H](Nc2cc(NC3CC3)c3ncc(C(=O)Nc4ccnc(F)c4)n3n2)CC1" , readout=pIC50) returns 6.77

Value of pIC50 reported for the compound "O=C(Nc1ccncc1F)c1cnc2c(Nc3cccc(N[C@H]4CC[C@H](O)CC4)n3)cc(N[C@H]3CC[C@H](O)CC3)nn12" is 6.85

###

target: recombinant CK2A1 (Homo sapiens); construct: purchased Invitrogen; assay: CK2 kinase assay (CK2A1), [γ-33P]ATP filter-binding; assay type: biochemical; conditions: recombinant CK2A1 10 nM, ATP 25 μM, 10 μM peptide substrate, 30° C. 1 h
Below, each entry is listed alongside its reported pIC50.
Give only the number. pIC50 is defined as minus log10 of concentration in molar units.

Illustrative cases are given below, each with its answer.
>  <COMPOUND>
O=C(Nc1ccnc(F)c1)c1cnc2c(NC3CC3)cc(N[C@H]3CC[C@H](NC(=O)C4CCCNC4)CC3)nn12 (some centres unmarked)

>  <pIC50>
6.74

$$$$
>  <COMPOUND>
CN(C)[C@H]1CCN(C(=O)N[C@H]2CC[C@H](Nc3cc(NC4CC4)c4ncc(C(=O)Nc5ccnc(Cl)c5)n4n3)CC2)C1

>  <pIC50>
8.72

$$$$
>  <COMPOUND>
O=C(Nc1ccncc1F)c1cnc2c(Nc3cccc(N[C@H]4CC[C@H](O)CC4)n3)cc(N[C@H]3CC[C@H](O)CC3)nn12

>  <pIC50>
7.47

$$$$
>  <COMPOUND>
N#CCC(=O)N[C@H]1CC[C@H](Nc2cc(Nc3nccs3)c3ncc(C(=O)Nc4ccnc(Cl)c4)n3n2)CC1

>  <pIC50>
8.01

$$$$
>  <COMPOUND>
O=C(Nc1ccncc1F)c1cnc2c(NC3CC3)cc(N[C@H]3CC[C@H](NC(=O)[C@H]4CCCN4)CC3)nn12

>  <pIC50>
7.42

$$$$
>  <COMPOUND>
C[C@H](N)C(=O)N[C@H]1CC[C@H](Nc2cc(NC3CC3)c3ncc(C(=O)Nc4ccnc(F)c4)n3n2)CC1

>  <pIC50>
7.26

$$$$
>  <COMPOUND>
O=C(Nc1ccncc1F)c1cnc2c(NC3CC3)cc(N[C@H]3CC[C@H](NCC(O)CO)CC3)nn12 (some centres unmarked)

>  <pIC50>
7.68

$$$$
>  <COMPOUND>
N[C@H]1CC[C@H](Nc2cc(NC3CCC3)c3ncc(C(=O)Nc4ccncc4F)n3n2)CC1

>  <pIC50>
7.72

$$$$
>  <COMPOUND>
N#CCC(=O)N[C@H]1CC[C@H](Nc2cc(NC3CC3)c3ncc(C(=O)Nc4ccnc(Cl)c4)n3n2)CC1

>  <pIC50>
7.94

$$$$
>  <COMPOUND>
N[C@H]1CC[C@H](Nc2cc(Nc3ccccc3)c3ncc(C(=O)Nc4ccncn4)n3n2)CC1

>  <pIC50>
7.24

$$$$

Now look at this one.
Per the record, "N[C@H]1CC[C@H](Nc2cc(NC3CCC3)c3ncc(C(=O)Nc4ccncc4)n3n2)CC1" has pIC50 of 7.46
